Reference source for all entries: PubChem BioAssay AID932

- EXPERIMENT SUMMARY: STAT1 signaling activators, primary screen, cell-based, HTS, luciferase reporter (AID 932)
- TEST SETTINGS: NIH 3T3 STAT1-luciferase reporter, IFN-gamma, luminescence; at 5.5 µM; 100% = IFN-gamma alone, no compound
Hit rate of the full screen: of about 200,000 compounds, about 5,100 (2.5%) were called active.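 How the source made its calls: active means activation above the screen-wide mean activation plus 3 SD (cut at about 130% in these data); inactive means the rest.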 The full list was thinned out, with actives kept by preference.
In this exercise, the only acceptable responses are active, inactive

• CC(C)(C)C1CCc2c(sc3nc(SCC(N)=O)nc(N)c23)C1 (stereo not given) = inactive
• CCNC(=S)N1CCC(c2nc3cc(C)c(C)cc3[nH]2)CC1 = inactive

Prompt line: What is the recorded call for this compound in the test? COc1ccc2oc(-c3cccc(NC(=O)CSc4ccc(Cl)cc4)c3)nc2c1
Response line: active

Prompt line: Please let me know the test result on file for O=C(O)c1ccc(NC(=O)c2cn(-c3ccccc3)nc2-c2ccc(Cl)cc2)cc1 .
Response line: inactive

Prompt line: Assay result, entry Cc1ccc(NN=C2C(=O)OC(C)(C)OC2=O)c(C)c1 — outcome?
Response line: active

---

- EXPERIMENT SUMMARY: STAT1 signaling activators, primary screen, cell-based, HTS, luciferase reporter (AID 932)
- TEST SETTINGS: NIH 3T3 STAT1-luciferase reporter, IFN-gamma, luminescence; at 5.5 µM; 100% = IFN-gamma alone, no compound
Hit rate of the full screen: of about 200,000 compounds, about 5,100 (2.5%) were called active.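 Rule for the calls: active = activation above the screen-wide mean activation plus 3 SD (cut at about 130% in these data); inactive = the rest.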 The sample holds actives, similar compounds and a random draw of the others, so the mix is not that of the screen.
Field 'call' accepts True for active, False for inactive

A selection of reference data follows.
• CCC(CC)c1nnc(NC(=O)c2nn(C)c(=O)c3ccccc23)s1 = False
• COc1cc(CN2CCN(Cc3ccc(C)cc3)CC2)c([N+](=O)[O-])cc1OC = False
• CC(NC(=O)COC(=O)c1ccc2c(c1)OCO2)c1ccccc1 (stereo not given) = False
• NC(N)=N/N=C/c1ccc(Cl)c([N+](=O)[O-])c1 = False
• CC(=O)Nc1ccc(S(=O)(=O)Nc2nccc(/C=C/c3ccccc3F)n2)cc1 = False
• O=C(Nc1ccc(-c2nnc(-c3ccccc3)o2)cc1)C1CCCO1 (stereo not given) = True

Prompt line: // return assay outcome for COC(=O)c1ccc(-n2cnc3ccccc32)nc1
Response line: True

Prompt line: Kindly provide the recorded test outcome for the following compound: Cc1csc(NC(=O)CSc2ccc(-c3ccc(F)cc3)nn2)n1
Response line: False

Prompt line: Query: recorded result category for O=c1c2c(nc3n1CCCCC3)sc1c(O)cccc12 in this test
Response line: False

Prompt line: What call does the record list for O=C(N/N=C/c1ccccn1)C12CC3CC(CC(C3)C1)C2 ?
Response line: False

Prompt line: // param item: Cc1cc(C)nc(NS(=O)(=O)c2ccc(N/C=C\C(=O)c3cccs3)cc2)n1 ; yields the recorded call
Response line: True

---

- EXPERIMENT SUMMARY: STAT1 signaling activators, primary screen, cell-based, HTS, luciferase reporter (AID 932)
- TEST SETTINGS: NIH 3T3 STAT1-luciferase reporter, IFN-gamma, luminescence; at 5.5 µM; 100% = IFN-gamma alone, no compound
Among all 200,000 compounds or so, about 5,100 (2.5%) were called active.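 The calls were made as follows: active = activation above the screen-wide mean activation plus 3 SD (cut at about 130% in these data); inactive = the rest.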 Only a selection was taken, and actives are over-represented in it overall.
Can you answer with just one of these options? active, inactive

* CO/N=C(\N)c1ccc([N+](=O)[O-])cc1 | inactive

Prompt line: # lookup: test call for CCOc1ccc(NC(=O)NNC(=O)c2ccc(Cl)cc2Cl)cc1
Response line: inactive

Prompt line: // return assay outcome for Cc1ccc(C(=O)CSc2nc3ccccc3c(=O)n2N)o1
Response line: active

Prompt line: Lab log entry: COc1ccc(N2CCN(C(=O)COc3ccc4c(C)cc(=O)oc4c3)CC2)cc1 — outcome as called in the assay?
Response line: inactive

Prompt line: Could you check what this test reported for CCC(O)C1CCN(Cc2cn(-c3ccc(OC)cc3)nc2-c2cccc(F)c2)CC1 (stereo not given) ?
Response line: inactive

Prompt line: Would you mind telling me which call this test gave CC(C)C(=O)Nc1ccc(C(=O)NNC(=O)c2cccs2)cc1 ?
Response line: inactive

Prompt line: Record lookup: outcome of this test for CC(=O)c1ccc(NC(=O)c2ccc3c(Cl)c4c(nc3c2)CCCC4)cc1 ?
Response line: inactive

Prompt line: Could you please tell me the result logged for COc1ccc(/C=C/C(=O)N2CCCC2)cc1OC in this assay?
Response line: inactive
